System: CYP2C9 (Homo sapiens)
Sequence (P11712 whole entry): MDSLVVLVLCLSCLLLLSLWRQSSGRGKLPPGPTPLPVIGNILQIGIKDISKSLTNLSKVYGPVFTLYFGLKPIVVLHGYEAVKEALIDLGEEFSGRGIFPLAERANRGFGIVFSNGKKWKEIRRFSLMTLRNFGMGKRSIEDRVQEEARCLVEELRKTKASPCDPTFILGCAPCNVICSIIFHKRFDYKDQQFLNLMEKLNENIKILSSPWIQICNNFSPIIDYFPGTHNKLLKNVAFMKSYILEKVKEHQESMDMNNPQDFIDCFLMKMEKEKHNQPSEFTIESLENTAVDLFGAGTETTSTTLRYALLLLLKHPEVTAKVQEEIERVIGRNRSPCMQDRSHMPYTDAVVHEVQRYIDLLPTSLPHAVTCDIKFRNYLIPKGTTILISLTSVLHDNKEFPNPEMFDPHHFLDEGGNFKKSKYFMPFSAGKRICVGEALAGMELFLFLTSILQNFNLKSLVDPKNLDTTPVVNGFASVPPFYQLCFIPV
Assay Summary: Inhibition of CYP2C9 (unknown origin) at 10 uM relative to control
Format: ADME
Attribute Measured: inhibition at 10 µM

Q: Fetch value of inhibition at 10 µM on CYP2C9 (Homo sapiens) for "COCCO[C@H]1CC[C@H](NC(=O)c2cc(-c3cncs3)nc3[nH]ccc23)CC1" .
Ans: < 15%

----------
Assay Summary: Drug exposure in mouse plasma assessed as AUC of drug at 3 mg/kg, po
Format: ADME, organism-based
Set-up: dose 3 mg/kg, route po
Attribute Measured: AUC
Write your answer as a measured quantity: the number, then the unit.

Worked cases, AUC given:
- COCCO[C@H]1CC[C@H](NC(=O)c2cc(-c3cncs3)nc3[nH]ccc23)CC1: 10400 ng·h/mL
- COCCO[C@H]1CC[C@H](NC(=O)c2cc(-c3cncs3)cc3cc[nH]c23)CC1: 7380 ng·h/mL
- COCCO[C@H]1CC[C@H](NC(=O)c2cc(-c3cncs3)cc3[nH]ccc23)CC1: 6980 ng·h/mL

Q: // fetch AUC given entry "COCCO[C@H]1CC[C@H](NC(=O)c2cc(-c3cncs3)nc3cc[nH]c23)CC1"
Ans: 6820 ng·h/mL

Q: // fetch AUC given entry "COCCO[C@H]1CC[C@H](NC(=O)c2cc(-c3cncs3)cc3[nH]cc(C#N)c23)CC1"
Ans: 75 ng·h/mL

Q: // fetch AUC given entry "COCCO[C@H]1CC[C@H](NC(=O)c2cc(-c3cncs3)c(F)c3[nH]ccc23)CC1"
Ans: 5110 ng·h/mL

Q: // fetch AUC given entry "COCCO[C@H]1CC[C@H](NC(=O)c2cc(-n3ccnc3)cc3cn[nH]c23)CC1"
Ans: 207 ng·h/mL

----------
Assay Summary: Cmax in non-human primates at 1 mg/kg, po
Assay type: ADME, organism-based
Parameters: dose 1 mg/kg, route po
Condition Notes: in vivo
Attribute Measured: Cmax
Write your answer as a measured quantity: the number, then the unit.

Q: // fetch Cmax given entry "COCCO[C@H]1CC[C@H](NC(=O)c2cc(-c3cncs3)nc3[nH]ccc23)CC1"
Ans: 0.71 µg/mL

----------
Assay Summary: Plasma protein binding in human
Assay type: ADME, cell-free
Condition Notes: read-out: PPB (converted)
Attribute Measured: fraction unbound
Number only, please.

Q: // fetch fraction unbound given entry "COCCO[C@H]1CC[C@H](NC(=O)c2cc(-c3cncs3)nc3[nH]ccc23)CC1"
Ans: 0.209

----------
Assay Summary: Apparent permeability of compound across apical to basal membrane in human Caco-2 cells
Assay type: ADME, cell-based
Attribute Measured: Papp A→B (×10⁻⁶ cm/s)
# value in ×10⁻⁶ cm/s; strip the unit string

Q: // fetch Papp A→B given entry "COCCO[C@H]1CC[C@H](NC(=O)c2cc(-c3cncs3)nc3[nH]ccc23)CC1"
Ans: 17.5

----------
System: CYP2D6 (Homo sapiens)
Sequence (P10635 whole entry): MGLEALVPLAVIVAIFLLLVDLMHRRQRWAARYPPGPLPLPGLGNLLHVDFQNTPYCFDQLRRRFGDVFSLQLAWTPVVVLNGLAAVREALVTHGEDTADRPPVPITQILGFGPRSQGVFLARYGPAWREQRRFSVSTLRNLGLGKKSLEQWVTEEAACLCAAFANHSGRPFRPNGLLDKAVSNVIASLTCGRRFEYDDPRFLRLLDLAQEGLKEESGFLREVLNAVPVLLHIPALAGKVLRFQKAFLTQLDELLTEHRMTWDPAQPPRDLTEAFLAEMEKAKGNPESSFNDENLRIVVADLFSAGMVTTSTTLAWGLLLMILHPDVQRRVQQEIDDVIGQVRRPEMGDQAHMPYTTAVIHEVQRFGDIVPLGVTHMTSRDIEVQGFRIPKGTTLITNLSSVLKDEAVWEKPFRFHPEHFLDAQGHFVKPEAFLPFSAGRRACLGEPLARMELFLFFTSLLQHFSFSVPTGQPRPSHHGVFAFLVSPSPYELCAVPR
Assay Summary: Inhibition of CYP2D6 (unknown origin) at 10 uM relative to control
Assay type: ADME
Attribute Measured: inhibition at 10 µM

Q: // fetch inhibition at 10 µM given entry "COCCO[C@H]1CC[C@H](NC(=O)c2cc(-c3cncs3)nc3[nH]ccc23)CC1"
Ans: < 15%

----------
Assay Summary: AUC in Sprague-Dawley rat at 10 mg/kg, po
Type: ADME, organism-based
Design: dose 10 mg/kg, route po
Condition Notes: in vivo
Attribute Measured: AUC (ng·h/mL)
# value in ng·h/mL; strip the unit string

Q: // fetch AUC given entry "COCCO[C@H]1CC[C@H](NC(=O)c2cc(-c3cncs3)nc3[nH]ccc23)CC1"
Ans: 60400
